test_system: Lyn (Homo sapiens, UniProt P07948)
Sequence (P07948 whole entry, species assumed): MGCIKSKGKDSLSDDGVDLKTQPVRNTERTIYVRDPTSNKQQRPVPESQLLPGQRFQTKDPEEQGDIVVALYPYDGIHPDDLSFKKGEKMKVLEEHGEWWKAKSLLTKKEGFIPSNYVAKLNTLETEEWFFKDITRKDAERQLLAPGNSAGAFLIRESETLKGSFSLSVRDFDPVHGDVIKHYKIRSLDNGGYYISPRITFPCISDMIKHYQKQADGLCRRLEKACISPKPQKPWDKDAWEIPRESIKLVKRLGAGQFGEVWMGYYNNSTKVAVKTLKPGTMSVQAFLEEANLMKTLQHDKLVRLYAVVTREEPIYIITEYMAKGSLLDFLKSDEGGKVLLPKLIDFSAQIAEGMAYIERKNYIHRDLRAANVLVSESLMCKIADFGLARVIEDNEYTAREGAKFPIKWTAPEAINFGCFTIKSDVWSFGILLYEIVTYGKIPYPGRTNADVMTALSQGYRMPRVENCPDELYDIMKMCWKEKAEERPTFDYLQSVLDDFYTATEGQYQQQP
Can you tell me IC50 for the items I'm about to list?

As a guide, the following entries are already answered.
Cc1nc(NCCNCCCCCC(=O)NO)cc(Nc2ncc(C(=O)Nc3c(C)cccc3Cl)s2)n1 [Compound 11] ... < 100 nM
Cc1nc(Nc2ncc(C(=O)Nc3c(C)cccc3Cl)s2)cc(N2CCN(CCCCCCC(=O)NO)CC2)n1 [Compound 6] ... < 100 nM

Here is the next item to consider.
Prompt: Please look at this compound and report its IC50: Cc1nc(NCCCCCCC(=O)NO)cc(Nc2ncc(C(=O)Nc3c(C)cccc3Cl)s2)n1 [Compound 24]
Response: < 100 nM

The reported numbers originate from patent US8426419B2.
